measured_target: DDX3X N-IDR (human, UniProt O00571 1-132)
Sequence (O00571 1-132): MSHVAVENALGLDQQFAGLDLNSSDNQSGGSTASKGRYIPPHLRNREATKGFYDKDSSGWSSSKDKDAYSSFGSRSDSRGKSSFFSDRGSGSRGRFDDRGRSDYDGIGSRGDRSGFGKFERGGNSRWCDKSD
test_details: EMSA; 125 mM KCl; EMSA: 20 mM K-phosphate pH 7.0, 125 mM KCl, 1 mM DTT, 0.005% Tween-20, 10% glycerol (1 mM ATP-Mg for MBP-FL/Core-C), gel at room temperature; ITC: 20 mM K-phosphate pH 7.0, 50 mM KCl, 25 C; NMR: 200 mM KCl (also 120 mM), 10 C, 50 uM
condition: protein: recombinant; tags: His6-SUMO tag cleaved (Ulp1); label: 5'-FAM; GQ abolished
measured_parameter: Kd (µM)
Provide only the numeric value, understood in µM.

Would you kindly share the measured Kd for UGUAGAAAGAGCAGAUCUAGAUGC (ssRNA) [FAM-NRAS mutant RNA] ?
6
